Molecular target: EGFR wild type (EGFR WT) (Homo sapiens (Human), UniProt P00533)
Sequence (P00533 25-1210): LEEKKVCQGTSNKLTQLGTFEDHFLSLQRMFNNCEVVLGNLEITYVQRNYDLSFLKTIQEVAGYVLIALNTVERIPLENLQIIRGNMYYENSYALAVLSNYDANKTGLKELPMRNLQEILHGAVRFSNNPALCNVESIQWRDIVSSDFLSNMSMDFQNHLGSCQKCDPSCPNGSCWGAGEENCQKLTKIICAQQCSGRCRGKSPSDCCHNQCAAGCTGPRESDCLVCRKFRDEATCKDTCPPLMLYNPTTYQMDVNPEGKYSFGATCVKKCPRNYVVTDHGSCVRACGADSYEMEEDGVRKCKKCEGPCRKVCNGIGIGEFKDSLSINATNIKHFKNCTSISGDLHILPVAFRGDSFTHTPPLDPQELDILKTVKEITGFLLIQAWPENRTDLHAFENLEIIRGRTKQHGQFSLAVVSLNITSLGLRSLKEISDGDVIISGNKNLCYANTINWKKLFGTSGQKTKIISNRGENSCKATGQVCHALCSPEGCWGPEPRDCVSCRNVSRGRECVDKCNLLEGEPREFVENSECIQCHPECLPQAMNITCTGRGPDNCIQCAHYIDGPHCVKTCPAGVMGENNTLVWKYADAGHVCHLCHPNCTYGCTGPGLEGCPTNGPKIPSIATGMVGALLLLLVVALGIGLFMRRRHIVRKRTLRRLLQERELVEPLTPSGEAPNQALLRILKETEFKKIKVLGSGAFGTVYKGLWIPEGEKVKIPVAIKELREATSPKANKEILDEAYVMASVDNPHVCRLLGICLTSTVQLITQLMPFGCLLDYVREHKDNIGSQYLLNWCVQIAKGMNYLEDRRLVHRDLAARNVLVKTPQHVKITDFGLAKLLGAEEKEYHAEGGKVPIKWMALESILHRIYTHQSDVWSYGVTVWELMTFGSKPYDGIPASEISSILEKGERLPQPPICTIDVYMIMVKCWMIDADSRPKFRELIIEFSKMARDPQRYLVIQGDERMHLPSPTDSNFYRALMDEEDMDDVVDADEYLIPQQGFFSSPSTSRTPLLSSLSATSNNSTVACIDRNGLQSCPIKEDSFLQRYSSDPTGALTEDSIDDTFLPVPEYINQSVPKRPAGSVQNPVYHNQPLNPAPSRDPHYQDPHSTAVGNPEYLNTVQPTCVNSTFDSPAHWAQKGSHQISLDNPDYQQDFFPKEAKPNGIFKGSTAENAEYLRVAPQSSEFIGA
Assay: Cellular Phosphorylation Assay, Assay 5 (EGF-stimulated EGFR phosphorylation, NIH 3T3 cells)
Assay type: cell-based
Conditions: EGF-stimulated EGFR WT phosphorylation
METRIC NAME: IC50 (µM)
Numeric answer only, unit µM assumed.

Consider C=CC(=O)N1CCC(Oc2ccc3ncnc(Nc4ccc(Oc5cnn6c(C)cnc6c5)c(C)c4F)c3n2)CC1 [Example 55] . Its measured IC50 is 0.93

Consider C=CC(=O)N1CC(c2ccc3ncnc(Nc4ccc(Oc5ccc6c(c5)ncn6C)c(C)c4F)c3n2)CCC12CC2 (stereo not drawn) [Example 197] . Its measured IC50 is 0.853

Consider C=CC(=O)N1C[C@@H]2C[C@H]1C[C@H]2c1ccc2ncnc(Nc3ccc(Oc4ccn5ncnc5c4)c(C)c3F)c2n1 (racemic) [Example 199] . Its measured IC50 is 0.942

Consider C=CC(=O)N1CCN(c2ccc3ncnc(Nc4ccc(Oc5ccn6ncnc6c5)c(C)c4F)c3n2)CC1 [Example 96] . Its measured IC50 is 0.538

Consider C=CC(=O)N1C2CC1CN(c1ccc3ncnc(Nc4ccc(Oc5ccn6ncnc6c5)c(C)c4F)c3n1)C2 [Example 47] . Its measured IC50 is 2.13

Consider C=CC(=O)N1CCN(c2ccc3ncnc(Nc4ccc(Oc5ccn6ncnc6c5)c(C)c4F)c3n2)CC1(C)C [Example 31] . Its measured IC50 is 0.928

Consider C=CC(=O)N1CCC2CN(c3nc4c(Nc5ccc(Oc6ccn7ncnc7c6)c(Cl)c5F)ncnc4cc3OC)CC21 (stereo not drawn) [Example 38] . Its measured IC50 is 0.382

Consider C=CC(=O)N1CCN(c2ccc3ncnc(Nc4ccc(Oc5cnc6c(c5)ncn6C)c(C)c4)c3n2)CC1 [Example 110] . Its measured IC50 is 2.53

Consider C=CC(=O)N1[C@@H]2CC[C@H]1C[C@@H](c1ccc3ncnc(Nc4ccc(Oc5cnc6c(c5)ncn6C)c(C)c4F)c3n1)C2 [Example 227] . Its measured IC50 is 5

Consider C=CC(=O)N1CCC(Oc2ccc3ncnc(Nc4ccc(Oc5cnn6ccnc6c5)c(C)c4F)c3n2)CC1 [Example 56] . Its measured IC50 is 0.374

Consider C=CC(=O)N1C[C@H]2C[C@@H]1[C@H](c1ccc3ncnc(Nc4ccc(Oc5ccn6ncnc6c5)c(Cl)c4F)c3n1)C2 [Example 231] . Its measured IC50 is 0.148

Consider C=CC(=O)N1CCC(Sc2ccc3ncnc(Nc4ccc(Oc5ccn6ncnc6c5)c(C)c4F)c3n2)CC1 [Example 60] . Its measured IC50 is 1.21

Consider CC#CC(=O)N1CC2CCC(C1)N2c1ccc2ncnc(Nc3ccc(Oc4ccn5ncnc5c4)c(C)c3F)c2n1 [Example 246] . Its measured IC50 is 1.3
